# reported IC50; entries follow
assayedSystem: mouse Mcl-1 with truncations of 151 amino acid residues at its N-terminus and 23 residues at its C-terminus (mouse) (UniProt P97287)
Sequence (P97287 152-308): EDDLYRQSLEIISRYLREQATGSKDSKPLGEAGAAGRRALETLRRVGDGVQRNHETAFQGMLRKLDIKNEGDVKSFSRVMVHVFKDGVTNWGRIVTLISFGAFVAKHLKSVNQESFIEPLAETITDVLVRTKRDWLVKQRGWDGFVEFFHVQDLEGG
methodDescription: competition phage ELISA
FLAG = FLAG tag
propertyMeasured: IC50 (nM)

[
  {
    "binder": "PSSTMGQVGRQLAIIGDDINRAYDSE [Bak BH3 R22A, phage-displayed]",
    "experimentalResult": 16
  },
  {
    "binder": "QEDIIRNIARHLAQVGDSMDRAIPPG [Bid BH3 S22A, phage-displayed]",
    "experimentalResult": 128
  },
  {
    "binder": "{FLAG}-RAELPPEFAAQLRKIGDKVYCTWSEP-{GGGT-g3(249-406)} [mNoxaA BH3 A25E, phage-displayed]",
    "experimentalResult": 33
  },
  {
    "binder": "{FLAG}-RAELPPEFAAQLRKIGDKVYATWSAP-{GGGT-g3(249-406)} [mNoxaA BH3 C21A, phage-displayed]",
    "experimentalResult": 19
  },
  {
    "binder": "{FLAG}-RAELPPEFEAQLRKIGDKVYCTWSAP-{GGGT-g3(249-406)} [mNoxaA BH3 A9E, phage-displayed]",
    "experimentalResult": 76
  },
  {
    "binder": "PSSTMGQVGRQLAAIGDDINRRYDSE [Bak BH3 I14A, phage-displayed]",
    "experimentalResult": 14
  }
]
